Overview of recorded IC50 for various compounds
Target: Histone deacetylase
Assay: Inhibition of HDAC in human HeLa cells using Boc-K(Ac)-AMC as substrate preincubated for 4 hrs before substrate addition measured after 3 hrs by fluorescence assay
Type: cell-based

The examples below pair each entry with its known result.
smiles-text | tested-system | IC50
C#Cc1cccc(Nc2ncnc3cc(NC(=O)c4ccc(C(=O)Nc5ccccc5N)s4)ccc23)c1 | Histone deacetylase | > 5.01 µM
C#Cc1cccc(Nc2ncnc3cc(OCCOC)c(OCCOC)cc23)c1 | Histone deacetylase | > 15.8 µM
C#Cc1cccc(Nc2ncnc3ccc(NC(=O)c4ccc(C(=O)Nc5ccccc5N)nc4)cc23)c1 | Histone deacetylase | > 15.8 µM
C#Cc1cccc(Nc2ncnc3ccc(NC(=O)c4ccc(C(=O)Nc5ccccc5N)cc4)cc23)c1 | Histone deacetylase | > 15.8 µM
C#Cc1cccc(Nc2ncnc3cc(NC(=O)c4ccc(C(=O)Nc5ccccc5N)nc4)ccc23)c1 | Histone deacetylase | > 5.01 µM

Consider the additional compound presented here.
The compound listed as C#Cc1cccc(Nc2ncnc3ccc(NC(=O)c4ccc(C(=O)Nc5ccccc5N)s4)cc23)c1 shows IC50 equal to > 15.8 µM
